# credit: paper PMC9482650

Target: FRMPD4, Q14CM0
Sequence (Q14CM0 67-160): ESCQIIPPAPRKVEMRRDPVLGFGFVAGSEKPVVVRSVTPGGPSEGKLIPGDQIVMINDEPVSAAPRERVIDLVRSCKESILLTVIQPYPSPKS
Assay: holdup assay
Design: key: below the threshold = too weak to quantify, mostly under pKd 3.1 to 4
Conditions: plain residues with an end cap or a label only (N-terminal biotin on a linker: ado-ado)
READOUT LABEL: pKd
Reply with just the number.

{"BINDER": "SARSRLSSNL [HCN2, Q9UL51]", "pKd": 3.5}

Please turn your attention to the following entry.
Returns the measured pKd for the input binder. Input: EVNETDDTKM [KCNJ1, P48048]
3.75
